Parameter CDC (10 ug/ml), RAJI: see the listing below.
- Assay System: T1, human CD20 antigen (human, UniProt P11836 1-297)
- T1 sequence (looked up): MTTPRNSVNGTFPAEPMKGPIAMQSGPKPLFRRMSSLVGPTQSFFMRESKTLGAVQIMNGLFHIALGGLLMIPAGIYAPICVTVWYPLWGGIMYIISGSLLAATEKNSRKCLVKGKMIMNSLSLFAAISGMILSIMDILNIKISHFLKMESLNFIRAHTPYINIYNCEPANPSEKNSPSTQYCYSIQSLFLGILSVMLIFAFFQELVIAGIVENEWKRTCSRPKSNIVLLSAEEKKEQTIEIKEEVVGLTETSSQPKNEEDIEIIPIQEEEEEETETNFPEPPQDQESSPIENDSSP
- Procedure Summary: cell-based or functional assay
Endpoint Label: CDC (10 ug/ml), RAJI

{"columns": ["Binder", "Endpoint Label", "Result"],
 "data": [
  ["humanized 1K1791 antibody ss (SdrL x SdrH) (antibody, V domains shown, Kappa, gamma 1 construct; also called hz1791 ss; Ss020) VH: QIQLVQSGSELKKPGASVKVSCKASGYTFTNFGVNWVRQAPGKGLKWMGWINTYTGEPSYAQGFTGRFAFSLDASVSTAYLQISSLKAEDTATYFCTRRTNYYGTSYYYAMDYWGQGTTVTVSS VL: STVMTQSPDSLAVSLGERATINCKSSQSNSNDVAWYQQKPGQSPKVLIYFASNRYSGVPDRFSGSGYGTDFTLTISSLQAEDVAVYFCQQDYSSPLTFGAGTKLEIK", "CDC (10 ug/ml), RAJI", "73 relative, c2B8 = 100"],
  ["humanized 1K1791 antibody sf (SdrL x FraH) (antibody, V domains shown, Kappa, gamma 1 construct; also called hz1791 sf; Sf043) VH: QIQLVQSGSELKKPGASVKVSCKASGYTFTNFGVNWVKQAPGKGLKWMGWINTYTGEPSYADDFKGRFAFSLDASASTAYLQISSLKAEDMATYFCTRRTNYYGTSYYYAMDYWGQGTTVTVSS VL: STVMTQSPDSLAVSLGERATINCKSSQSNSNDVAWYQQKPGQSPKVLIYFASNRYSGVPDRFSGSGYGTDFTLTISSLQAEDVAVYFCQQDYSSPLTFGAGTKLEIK", "CDC (10 ug/ml), RAJI", "78 relative, c2B8 = 100"]
]}
